// data source = PubChem BioAssay AID2060601

# System: 874868-142-R-J2-PDC complex spheroids, growth % test/control;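 note: spheroids exposed to the compounds for 7 days; 100% = DMSO vehicle control viability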
# Protocol Text: Anticancer human tumor 874868-142-R-J2-PDC patient-derived head and neck squamous carcinoma cell line growth inhibition [CLK]
# Cond: second compound 0.316 µM; first compound 10 µM; active compounds read low
Doc: threshold 40% (exclusive). Items with viability, T/C beneath it return label 1; others return label 0.

INSERT INTO measurements (molecule, label_class) VALUES
  ('Nc1ccn(C2OC(CO)C(O)C2(F)F)c(=O)n1 (stereo not given) + CNC(=O)c1ccc(Nc2nc(OC3CCCC3)c3c(-c4ccc5nc(C)oc5c4)c[nH]c3n2)c(OC)c1', 'label 1'),
  ('CC(=O)O[C@H]1C(=O)[C@@]2(C)[C@H]([C@H](OC(=O)c3ccccc3)[C@]3(O)C[C@H](OC(=O)[C@H](O)[C@@H](NC(=O)c4ccccc4)c4ccccc4)C(C)=C1C3(C)C)[C@]1(OC(C)=O)CO[C@@H]1C[C@@H]2O + CNC(=O)c1ccc(Nc2nc(OC3CCCC3)c3c(-c4ccc5nc(C)oc5c4)c[nH]c3n2)c(OC)c1', 'label 0'),
  ('COc1ccc([C@@H](O)c2cc(-c3ncnc4cc(N5CCOCC5)ccc34)c(F)cc2Cl)nn1 + CN1CCN(c2cc(C(=O)Nc3cc4cc(-c5cnn(C)c5)ccc4cn3)ccn2)CC1', 'label 1'),
  ('CC(CO)NC(=O)c1cc(-c2ccc(Cl)cc2)nn(-c2cnn(C)c2)c1=O (stereo not given) + CNC(=O)c1ccc(Nc2nc(OC3CCCC3)c3c(-c4ccc5nc(C)oc5c4)c[nH]c3n2)c(OC)c1', 'label 0');
